Measured EC50, listed per entry for reference.
Target: Gal4-RORγ-LBD (Homo sapiens)
Construct: expressed in transfected cells; pcDNA3.1neo plasmid, co-transfected with pGL4.31 Gal4-luciferase reporter
Test: Gal4-RORγ Luciferase Reporter Assay in HEK-293T Cells
Format: cell-based
Conditions: HEK-293 cells, in presence of 2 μM ursolic acid, overnight incubation; read-out: Ga14-RORγ Assay EC50

INPUT: # input compound: C/C(=C\c1ccc2c(c1)N(S(=O)(=O)c1cccc(C(F)(F)F)c1)[C@H](C)[C@H](Cn1ccnc1)C2)c1c(F)cccc1Cl ; wanted: its EC50
OUTPUT: 0.1 to 5 µM

INPUT: Reported EC50 for C/C(=C\c1ccc2c(c1)N(S(=O)(=O)c1cccc(C(F)(F)F)c1)C[C@H](CCCc1nn[nH]n1)O2)c1c(F)cccc1Cl : what is it?
OUTPUT: 0.1 to 5 µM

INPUT: Given C/C(=C\c1ccc2c(c1)N(S(=O)(=O)c1cccc(C(F)(F)F)c1)C[C@H](CCCn1cccn1)O2)c1c(F)cccc1Cl , state its recorded EC50.
OUTPUT: 0.1 to 5 µM

INPUT: Can you look up the measured EC50 of C/C(=C\c1ccc2c(c1)N(S(=O)(=O)c1cccc(C(F)(F)F)c1)C[C@H](CCCc1noc(=O)[nH]1)O2)c1c(F)cccc1Cl for me?
OUTPUT: 0.1 to 5 µM

----------
Biological target: Gal4-RORγ-LBD (Homo sapiens, UniProt P51449)
Construct: pcDNA3.1neo plasmid, co-transfected with pGL4.31 Gal4-luciferase reporter
Sequence (P51449 269-508 limits assumed): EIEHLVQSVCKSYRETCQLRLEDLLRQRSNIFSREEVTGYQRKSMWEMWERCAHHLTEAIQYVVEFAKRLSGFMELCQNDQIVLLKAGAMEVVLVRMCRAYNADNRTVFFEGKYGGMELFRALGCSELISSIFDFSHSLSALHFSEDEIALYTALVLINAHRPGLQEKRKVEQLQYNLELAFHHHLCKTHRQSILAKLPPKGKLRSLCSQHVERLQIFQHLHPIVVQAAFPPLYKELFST
Assay: Gal4-RORγ Luciferase Reporter Assay in HEK-293T Cells
Details: HEK-293 cells, in presence of 2 μM ursolic acid, overnight incubation; read-out: Ga14-RORγ Assay EC50
pEC50: −log10 of the molar value.
The following molecules are listed with their measured pEC50 values.

INPUT: Lab note: need pEC50 with Gal4-RORγ-LBD (Homo sapiens, UniProt P51449) for entry C[C@@H]1[C@H](n2cc[nH]c2=O)Cc2ccc(/C=C/c3c(F)cccc3C(F)(F)F)cc2N1S(=O)(=O)c1cccc(C(F)(F)F)c1 , please look it up.
OUTPUT: 5.30 to 7.00

INPUT: What is its pEC50 for Gal4-RORγ-LBD (Homo sapiens, UniProt P51449)? Entry: C/C(=C\c1ccc2c(c1)N(S(=O)(=O)c1cccc(C(F)(F)F)c1)C[C@H](CCOc1noc(=O)[nH]1)O2)c1c(F)cccc1Cl
OUTPUT: 5.30 to 7.00

INPUT: Item C/C(=C\c1ccc2c(c1)N(S(=O)(=O)c1cccc(C(F)(F)F)c1)[C@H](C)[C@H](Cn1ccnn1)C2)c1c(F)cccc1Cl with Gal4-RORγ-LBD (Homo sapiens, UniProt P51449) - pEC50?
OUTPUT: < 5.00
